Assay Target: GGTase-I (Rattus norvegicus, UniProt P53610+Q04631)
Construct: purchased JENA BIOSCIENCE
Experimental Protocol: In vitro GGTase-I enzyme assay (IC50, kinetics)
Type: biochemical
Assay Setup: Tables 3, 5, 7; read-out: In vitro (enzyme assay) IC50, GGTase I
pIC50: −log10 of the molar value.
Examples of compounds with documented pIC50 follow.

Some solved cases for reference:
1) Cc1ccccc1S(=O)(=O)N1[C@@H](c2ccc(Cl)cc2)C(C(=O)NO)=C[C@H]1C(C)(C)C; 5.89
2) Cc1ccccc1S(=O)(=O)N1[C@@H](c2ccc(Cl)cc2)C(C(=O)N[C@@H](Cc2ccccc2)C(N)=O)=C[C@H]1C(C)CC(C)(C)C (stereo partly drawn) [P61-C04]; < 4.30
3) NC(=O)[C@H](Cc1ccccc1)NC(=O)C1=CC[C@@H](c2cccc(Br)c2)N(S(=O)(=O)c2ccc(Cl)cc2)C1c1cccc(Cl)c1 (stereo partly drawn) [P61-D04]; 5.89
4) CC(C)(C)[C@@H]1C=C(C(=O)N[C@@H](Cc2ccccc2)C(N)=O)[C@H](c2ccc(Br)cc2)N1S(=O)(=O)c1ccccc1Cl [P61-B09]; < 5.00
5) COC(=O)C(CC(C)C)NC(=O)C1=CCC(c2cccc(Br)c2)N(S(=O)(=O)c2ccc(F)cc2)C1c1cccc(Cl)c1 (stereo not drawn); < 4.70

Now consider a different compound.
// field: pIC50; key: NC(=O)[C@H](Cc1ccccc1)NC(=O)C1=CC[C@@H](c2cccc(Cl)c2)N(S(=O)(=O)c2ccc(Br)cc2)C1c1cccc(Br)c1 (stereo partly drawn) ; value = < 4.70
